- System: Vero E6 cells
- test-parameters: African green monkey (Chlorocebus sp.)
reported-metric: CC50

Notebook: COC(=O)[C@H]1[C@@H](O)[C@@]2(O)c3c(OC)cc(Br)cc3O[C@@]2(c2ccc(OC)cc2)[C@@H]1c1ccccc1 (racemic) [9m] , CC50 read as > 1000 nM

COC(=O)[C@H]1[C@@H](O)[C@@]2(O)c3c(Cl)cc(Cl)cc3O[C@@]2(c2ccc(OC)cc2)[C@@H]1c1ccccc1 (racemic) [9da] yielded CC50 of > 1000 nM

* * *

- Tested on: CHIKV LR2006-OPY1
- assay-details: microbe, parasite or virus in culture
- Type: cell-based
- test-parameters: Chikungunya virus, Huh-7, 48 h
reported-metric: pEC50
Remember, pEC50 is on a log scale: it is -log10 of the molar concentration.

Record summary for COC(=O)[C@H]1[C@@H](O)[C@@]2(O)c3c(OC)cc(Br)cc3O[C@@]2(c2ccc(OC)cc2)[C@@H]1c1ccccc1 (racemic) [9m] : reported pEC50 = 8.54

Entry under test: COC(=O)[C@H]1[C@@H](O)[C@@]2(O)c3c(Cl)cc(Cl)cc3O[C@@]2(c2ccc(OC)cc2)[C@@H]1c1ccccc1 (racemic) [9da] . Its pEC50 was 7.65

// pEC50 lookup, compound = CONC(=O)[C@H]1[C@@H](O)[C@@]2(O)c3c(Cl)cc(Br)cc3O[C@@]2(c2ccc(OC)cc2)[C@@H]1c1ccccc1 (racemic) [14f] , result: 8.47

* * *

Assignment: determine reported log10 of CC50 at 48 h for the given compounds.
- assay-details: in vitro
- test-parameters: human
Values are log10 of CC50 at 48 h in nM.

log10 of CC50 at 48 h for COC(=O)[C@H]1[C@@H](O)[C@@]2(O)c3c(F)cc(OC)cc3O[C@@]2(c2ccc(OC)cc2)[C@@H]1c1ccccc1 (racemic) is 2.21

What the record says about COC(=O)[C@H]1[C@@H](O)[C@@]2(O)c3c(OC)cc(Cl)cc3O[C@@]2(c2ccc(OC)cc2)[C@@H]1c1ccccc1 (racemic) : log10 of CC50 at 48 h is 1.30

Memo: CONC(=O)[C@H]1[C@@H](O)[C@@]2(O)c3c(Cl)cc(Cl)cc3O[C@@]2(c2ccc(OC)cc2)[C@@H]1c1ccccc1 (racemic) [14da] , reported log10 of CC50 at 48 h: 1.50

Short answer for CONC(=O)[C@H]1[C@@H](O)[C@@]2(O)c3c(OC)cc(Br)cc3O[C@@]2(c2ccc(OC)cc2)[C@@H]1c1ccccc1 (racemic) [14m] : log10 of CC50 at 48 h was 0.00

Quick note, log10 of CC50 at 48 h for COC(=O)[C@H]1[C@@H](O)[C@@]2(O)c3c(OC)cc(F)cc3O[C@@]2(c2ccc(OC)cc2)[C@@H]1c1ccccc1 (racemic) landed at 2.96

The compound listed as COC(=O)[C@H]1[C@@H](O)[C@@]2(O)c3c(Cl)cc(Cl)cc3O[C@@]2(c2ccc(OC)cc2)[C@@H]1c1ccccc1 (racemic) shows log10 of CC50 at 48 h equal to 2.17

Value of log10 of CC50 at 48 h reported for the compound COC(=O)[C@H]1[C@@H](O)[C@@]2(O)c3c(OC)cc(Br)cc3O[C@@]2(c2ccc(OC)cc2)[C@@H]1c1ccccc1 (racemic) is 1.14

So for COC(=O)[C@H]1[C@@H](O)[C@@]2(O)c3c(OC)cc(OC)cc3O[C@@]2(c2ccc(Br)cc2)[C@@H]1c1ccccc1 (racemic) [11bb] , the logged log10 of CC50 at 48 h turned out to be 1.43

Looking up COc1cc(OC)c2c(c1)O[C@@]1(c3ccc(F)cc3)[C@H](c3ccccc3)[C@@H](C(=O)N(C)C)[C@@H](O)[C@@]21O (racemic) , I found its log10 of CC50 at 48 h recorded as 2.47

For this compound ( COC(=O)[C@H]1[C@@H](O)[C@@]2(O)c3c(OC)cc(O[C@@H]4O[C@@H]([C@H](O)CO)CO[C@H]4OC)cc3O[C@@]2(c2ccc(OC)cc2)[C@@H]1c1ccccc1 [(−)-silvestrol (2a), silvestrol, reference compound] ), measured log10 of CC50 at 48 h is 1.13

Looking up COC(=O)[C@H]1[C@@H](O)[C@@]2(O)c3c(Cl)cc(Cl)cc3O[C@@]2(c2ccc(Br)cc2)[C@@H]1c1ccccc1 (racemic) , I found its log10 of CC50 at 48 h recorded as 1.68

Field log10 of CC50 at 48 h (entry COC(=O)[C@H]1[C@@H](O)[C@@]2(O)c3c(OC)cc(OC)cc3O[C@@]2(c2ccc(Cl)cc2)[C@@H]1c1ccccc1 (racemic) ) reads 1.59

* * *

- Test system: Huh-7 cells
- test-parameters: human
reported-metric: CC50

Field CC50 (entry COC(=O)[C@H]1[C@@H](O)[C@@]2(O)c3c(Cl)cc(Cl)cc3O[C@@]2(c2ccc(OC)cc2)[C@@H]1c1ccccc1 (racemic) ) reads > 1000 nM

Looking up COC(=O)[C@H]1[C@@H](O)[C@@]2(O)c3c(OC)cc(Br)cc3O[C@@]2(c2ccc(OC)cc2)[C@@H]1c1ccccc1 (racemic) , I see its CC50 listed as > 1000 nM

Reported CC50 ( CONC(=O)[C@H]1[C@@H](O)[C@@]2(O)c3c(Cl)cc(Br)cc3O[C@@]2(c2ccc(OC)cc2)[C@@H]1c1ccccc1 (racemic) [14f] ) = > 1000 nM

* * *

Could you please report measured EC90 for the items listed next?
- System: HEV-3 replicon p6-Gluc
- assay-details: microbe, parasite or virus in culture
- Type: cell-based, Hepatitis E virus
- test-parameters: Hepatitis E virus, HepG2, 24 h
Give just the number in nM; leave the unit off.

Entry COC(=O)[C@H]1[C@@H](O)[C@@]2(O)c3c(OC)cc(Br)cc3O[C@@]2(c2ccc(OC)cc2)[C@@H]1c1ccccc1 (racemic) — recorded EC90 = 40.7

The recorded EC90 for COc1cc(OC)c2c(c1)O[C@@]1(c3ccc(Cl)cc3)[C@H](c3ccccc3)[C@@H](C(=O)N(C)C)[C@@H](O)[C@@]21O (racemic) [14aa] is 174

Per the record, COC(=O)[C@H]1[C@@H](O)[C@@]2(O)c3c(OC)cc(Cl)cc3O[C@@]2(c2ccc(OC)cc2)[C@@H]1c1ccccc1 (racemic) has EC90 of 45.1

Measured EC90, COC(=O)[C@H]1[C@@H](O)[C@@]2(O)c3c(Cl)cc(Cl)cc3O[C@@]2(c2ccc(OC)cc2)[C@@H]1c1ccccc1 (racemic) : 642

For this compound ( COC(=O)[C@H]1[C@@H](O)[C@@]2(O)c3c(Cl)cc(Cl)cc3O[C@@]2(c2ccc(Br)cc2)[C@@H]1c1ccccc1 (racemic) ), measured EC90 is 128

Just so you know, measured EC90 for COC(=O)[C@H]1[C@@H](O)[C@@]2(O)c3c(OC)cc(OC)cc3O[C@@]2(c2ccc(Br)cc2)[C@@H]1c1ccccc1 (racemic) [11bb] came out at 158

So for COC(=O)[C@H]1[C@@H](O)[C@@]2(O)c3c(OC)cc(O[C@@H]4O[C@@H]([C@H](O)CO)CO[C@H]4OC)cc3O[C@@]2(c2ccc(OC)cc2)[C@@H]1c1ccccc1 [(−)-silvestrol (2a), silvestrol, reference compound] , the logged EC90 turned out to be 40.5

# EC90 (compound: COC(=O)[C@H]1[C@@H](O)[C@@]2(O)c3c(Cl)cc(OC)cc3O[C@@]2(c2ccc(OC)cc2)[C@@H]1c1ccccc1 (racemic) ) is 577

Looking up CONC(=O)[C@H]1[C@@H](O)[C@@]2(O)c3c(Cl)cc(Br)cc3O[C@@]2(c2ccc(OC)cc2)[C@@H]1c1ccccc1 (racemic) [14f] , I found its EC90 recorded as 53.4

Item: COC(=O)[C@H]1[C@@H](O)[C@@]2(O)c3c(Br)cc(Cl)cc3O[C@@]2(c2ccc(OC)cc2)[C@@H]1c1ccccc1 (racemic) | EC90: 482

* * *

- assay-details: in vitro
- test-parameters: human
reported-metric: CC50 at 24 h (nM)
Number only, in nM; omit the unit.

Lab note: COC(=O)[C@H]1[C@@H](O)[C@@]2(O)c3c(OC)cc(O[C@@H]4O[C@@H]([C@H](O)CO)CO[C@H]4OC)cc3O[C@@]2(c2ccc(OC)cc2)[C@@H]1c1ccccc1 [(−)-silvestrol (2a), silvestrol, reference compound] gave CC50 at 24 h of 180

Reported CC50 at 24 h ( COC(=O)[C@H]1[C@@H](O)[C@@]2(O)c3c(OC)cc(OC)cc3O[C@@]2(c2ccc(OC)cc2)[C@@H]1c1ccccc1 (racemic) [(±)-methyl rocaglate (11bc), reference compound] ) = 690

The compound listed as COC(=O)[C@H]1[C@@H](O)[C@@]2(O)c3c(OC)cc(OC)cc3O[C@@]2(c2ccc(Br)cc2)[C@@H]1c1ccccc1 (racemic) [11bb] shows CC50 at 24 h equal to 420

get_value(item= CONC(=O)[C@H]1[C@@H](O)[C@@]2(O)c3c(Cl)cc(Cl)cc3O[C@@]2(c2ccc(OC)cc2)[C@@H]1c1ccccc1 (racemic) [14da] , readout=CC50 at 24 h) returns 511

// sample COC(=O)[C@H]1[C@@H](O)[C@@]2(O)c3c(Br)cc(Cl)cc3O[C@@]2(c2ccc(OC)cc2)[C@@H]1c1ccccc1 (racemic) , its CC50 at 24 h was 812

The compound identified as COCOc1cc(F)c2c(c1)O[C@@]1(c3ccc(Br)cc3)[C@H](c3ccccc3)[C@@H](C(=O)OC)[C@@H](O)[C@@]21O (racemic) registered its CC50 at 24 h at 727

For reference, reported CC50 at 24 h for COC(=O)[C@H]1[C@@H](O)[C@@]2(O)c3c(Cl)cc(Cl)cc3O[C@@]2(c2ccc(Br)cc2)[C@@H]1c1ccccc1 (racemic) stands at 389

The reported CC50 at 24 h of the compound COc1cc(OC)c2c(c1)O[C@@]1(c3ccc(Cl)cc3)[C@H](c3ccccc3)[C@@H](C(=O)N(C)C)[C@@H](O)[C@@]21O (racemic) [14aa] was 390

Lab book: CC50 at 24 h of COC(=O)[C@H]1[C@@H](O)[C@@]2(O)c3c(Cl)cc(OC)cc3O[C@@]2(c2ccc(OC)cc2)[C@@H]1c1ccccc1 (racemic) noted as 832

Entry under test: COC(=O)[C@H]1[C@@H](O)[C@@]2(O)c3c(Cl)cc(Cl)cc3O[C@@]2(c2ccc(OC)cc2)[C@@H]1c1ccccc1 (racemic) . Its CC50 at 24 h was 798
